- EXPERIMENT_NOTES: Tmax in dog at 10 mg/kg, po
- Assay type: ADME, organism-based, Canis lupus familiaris
- SETTINGS: in vivo
MEASURE_NAME: Tmax (min)
Entry rule: numbers only, all in min.

Challenge: Return Tmax (reported value) for this compound: `CC(C)n1nc2c(c1-c1ccc(F)cc1)CCNCC2`
Response given: 30

###

- EXPERIMENT_NOTES: Tmax in rat brain at 10 mg/kg, po
- Type: ADME, organism-based
MEASURE_NAME: Tmax (h)
Supply the numeric figure in h, leaving out any unit text.

Challenge: Complete the entry with Tmax for `CC(C)n1nc2c(c1-c1ccc(F)cc1)CCNCC2`
Response given: 1

Each recorded value in this set is attributed to ChEMBL document CHEMBL4673280.
